Reference source for all entries: ChEMBL document CHEMBL1139249

System: Candida albicans
assay_procedure: Antifungal activity against Candida albicans MCC 50319 after 16 to 20 hrs by CLSI standard method
Format: functional
recorded_metric: MFC (µg/mL)
The answer is to be given in µg/mL; state only the numeric part.

Prompt: # returns recorded MFC (system: Candida albicans) for CCOP(=O)(O)CC(C)(C)N(Cl)Cl
Completion: 32

Prompt: Form: Entry = CC(C)(CS(=O)(=O)[O-])N(Cl)Cl.[Na+] | System = Candida albicans | MFC = ____
Completion: 32

Prompt: Lab note: need MFC for CC(C)(COC(=O)CCS(=O)(=O)O)N(Cl)Cl on Candida albicans, anyone have it?
Completion: 4

* * *

assay_procedure: Aqueous solubility at pH 4
Type: physicochemical
experimental_context: aqueous solution
# if measured half-life < 60 days: Y  # else: N

Prompt: Quick check: does CC(C)(CS(=O)(=O)O)C(=O)OCC(C)(C)N(Cl)Cl have half-life under 60 days?
Completion: N

Prompt: Say whether its half-life is strictly beneath 60 days. Entry: CC(C)(CP(=O)(O)O)N(Cl)Cl
Completion: Y

Prompt: Item CC(C)(CS(=O)(=O)CCS(=O)(=O)O)N(Cl)Cl : half-life beneath 60 days, strictly?
Completion: N

Prompt: Below 60 days on half-life? Entry CC(C)(CCS(=O)(=O)O)N(Cl)Cl
Completion: N

Prompt: Could you please tell me whether half-life recorded for CC(C)(CCCS(=O)(=O)O)N(Cl)Cl is less than 60 days?
Completion: Y

Prompt: Is the reported half-life for CC(=O)NS(=O)(=O)CC(C)(C)N(Cl)Cl strictly below 60 days?
Completion: Y

Prompt: Does the reported half-life of CC(C)(CS(=O)(=O)[O-])N(Cl)Cl.[Na+] stay below 60 days?
Completion: N

Prompt: Consider the compound CC(C)(COC(=O)CCS(=O)(=O)O)N(Cl)Cl . Is its half-life strictly less than 60 days?
Completion: N

Prompt: Lab log: compare recorded half-life with 60 days; is it strictly lower for CC(C)(CC(=O)OCCS(=O)(=O)O)N(Cl)Cl ?
Completion: N

* * *

assay_procedure: Therapeutic index, ratio of CT50 for mouse L929 cells to MBC for Escherichia coli
Assay type: cell-based
experimental_context: read-out: TI
Record form. Attribute: selectivity ratio. Fill in for each entry.
Form rule: numeric answer, no unit written next to it.

Prompt: Request the reported selectivity ratio associated with CC(C)(COC(=O)CCS(=O)(=O)O)N(Cl)Cl
Completion: 8

Prompt: Which selectivity ratio is listed for CC(C)(CC(=O)OCCS(=O)(=O)O)N(Cl)Cl ?
Completion: 8

Prompt: May I ask what selectivity ratio has been recorded for CC(=O)NS(=O)(=O)CC(C)(C)N(Cl)Cl ?
Completion: 8

* * *

Please go through the items and note down their MBC.
Test system: Staphylococcus aureus
assay_procedure: Antibacterial activity against Staphylococcus aureus ATCC 29213 after 16 to 20 hrs by CLSI standard method
Type: functional
Unit µg/mL implied. Number only.

Prompt: Reported MBC, molecule CC(=O)NS(=O)(=O)CC(C)(C)N(Cl)Cl : ____
Completion: 1

Prompt: Give the measured MBC of CC(C)(CC(=O)OCCS(=O)(=O)O)N(Cl)Cl .
Completion: 2

Prompt: GET /values?readout=MBC&item= CC(C)(CP(=O)(O)O)N(Cl)Cl
Completion: 16

Prompt: Query: MBC; subject: CC(C)(CS(=O)(=O)CCS(=O)(=O)O)N(Cl)Cl
Completion: 8

Prompt: Query: MBC; subject: CC(C)(CS(=O)(=O)O)C(=O)OCC(C)(C)N(Cl)Cl
Completion: 8

Prompt: Which measured MBC value corresponds to CC(C)(CCS(=O)(=O)O)N(Cl)Cl ?
Completion: 4
